The values you see were collected from the RNAGym collection of RNA variant scans (doi:10.7554/elife.80360).

B1: HDV Ribozyme (parent)
chain: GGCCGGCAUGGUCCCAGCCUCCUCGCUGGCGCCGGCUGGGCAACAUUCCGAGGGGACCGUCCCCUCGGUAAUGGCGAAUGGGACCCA

# Variants of: B1
# ASSAY_METHOD_TEXT: self-cleavage, relative activity (ratio to wild type); higher = more cleavage; co-transcriptional
ASSAY_METRIC: self-cleavage
Give your answer as a number; write no unit.

Sample answers from the record:
{"SEQUENCE_CHANGE": "C14G C62A", "self-cleavage": 0.437}
{"SEQUENCE_CHANGE": "U37G G54C", "self-cleavage": 0.0594}
{"SEQUENCE_CHANGE": "G1U U69G", "self-cleavage": 0.435}
{"SEQUENCE_CHANGE": "C13U A45C", "self-cleavage": 0.365}
{"SEQUENCE_CHANGE": "C33G A83C", "self-cleavage": 0.252}

What value of self-cleavage has been reported for the following variant? G2A U12A
0

Let us now turn to C22U G73C
0.256

Let us now turn to G10A C63A
0.76

Let us now turn to G1U G6C
0.656

Let us now turn to C18U G35C
0.119

Let us now turn to G50A G73C
0.436

Let us now turn to C66U U69G
0.867

Let us now turn to A56C U72G
0.383

Let us now turn to C13G U65C
0.095
